target: Coagulation Factor Xa, from human plasma (human, UniProt P00742 41-488, limits assumed); assay: cell-based or functional assay
Sequence (P00742 41-488 limits assumed): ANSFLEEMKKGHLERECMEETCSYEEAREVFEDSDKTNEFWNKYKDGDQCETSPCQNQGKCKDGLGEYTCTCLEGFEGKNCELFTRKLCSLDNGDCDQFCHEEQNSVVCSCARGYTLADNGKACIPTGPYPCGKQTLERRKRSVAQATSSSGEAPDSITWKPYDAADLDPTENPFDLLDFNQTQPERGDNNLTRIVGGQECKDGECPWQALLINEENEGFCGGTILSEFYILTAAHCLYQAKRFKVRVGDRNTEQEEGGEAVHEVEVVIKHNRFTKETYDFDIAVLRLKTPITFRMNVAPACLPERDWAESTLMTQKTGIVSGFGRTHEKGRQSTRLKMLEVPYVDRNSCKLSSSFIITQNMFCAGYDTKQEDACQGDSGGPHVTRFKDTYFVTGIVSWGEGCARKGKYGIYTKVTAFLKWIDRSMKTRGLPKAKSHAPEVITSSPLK
Provide the recorded % inhibition at 100 µM for the entries that follow.
Response body: numeric value in %, unit text excluded.

Note down % inhibition at 100 µM recorded for FCTKSDPPICS (HELM PEPTIDE1{F.C.T.K.S.D.P.P.I.C.S.[dA].D}$PEPTIDE1,PEPTIDE1,2:R3-10:R3|PEPTIDE1,PEPTIDE1,1:R1-13:R2$$$V2.0; SMILES CC[C@H](C)[C@@H]1NC(=O)[C@@H]2CCCN2C(=O)[C@@H]2CCCN2C(=O)[C@H](CC(=O)O)NC(=O)[C@H](CO)NC(=O)[C@H](CCCCN)NC(=O)[C@H]([C@@H](C)O)NC(=O)[C@@H]2CSSC[C@H](NC1=O)C(=O)N[C@@H](CO)C(=O)N[C@H](C)C(=O)N[C@@H](CC(=O)O)C(=O)N[C@@H](Cc1ccccc1)C(=O)N2) [Example 68]
8.6

Give the reported value of % inhibition at 100 µM for this record: FCTKSEPPICT (HELM PEPTIDE1{F.C.T.K.S.E.P.P.I.C.T.[dP].P}$PEPTIDE1,PEPTIDE1,2:R3-10:R3|PEPTIDE1,PEPTIDE1,1:R1-13:R2$$$V2.0; SMILES CC[C@H](C)[C@@H]1NC(=O)[C@@H]2CCCN2C(=O)[C@@H]2CCCN2C(=O)[C@H](CCC(=O)O)NC(=O)[C@H](CO)NC(=O)[C@H](CCCCN)NC(=O)[C@H]([C@@H](C)O)NC(=O)[C@@H]2CSSC[C@H](NC1=O)C(=O)N[C@@H]([C@@H](C)O)C(=O)N1CCC[C@@H]1C(=O)N1CCC[C@H]1C(=O)N[C@@H](Cc1ccccc1)C(=O)N2) [Example 1]
5.7
